target or system: canine TRPM8 (Canis lupus familiaris)
Sequence (Q1A7N1 1-1104): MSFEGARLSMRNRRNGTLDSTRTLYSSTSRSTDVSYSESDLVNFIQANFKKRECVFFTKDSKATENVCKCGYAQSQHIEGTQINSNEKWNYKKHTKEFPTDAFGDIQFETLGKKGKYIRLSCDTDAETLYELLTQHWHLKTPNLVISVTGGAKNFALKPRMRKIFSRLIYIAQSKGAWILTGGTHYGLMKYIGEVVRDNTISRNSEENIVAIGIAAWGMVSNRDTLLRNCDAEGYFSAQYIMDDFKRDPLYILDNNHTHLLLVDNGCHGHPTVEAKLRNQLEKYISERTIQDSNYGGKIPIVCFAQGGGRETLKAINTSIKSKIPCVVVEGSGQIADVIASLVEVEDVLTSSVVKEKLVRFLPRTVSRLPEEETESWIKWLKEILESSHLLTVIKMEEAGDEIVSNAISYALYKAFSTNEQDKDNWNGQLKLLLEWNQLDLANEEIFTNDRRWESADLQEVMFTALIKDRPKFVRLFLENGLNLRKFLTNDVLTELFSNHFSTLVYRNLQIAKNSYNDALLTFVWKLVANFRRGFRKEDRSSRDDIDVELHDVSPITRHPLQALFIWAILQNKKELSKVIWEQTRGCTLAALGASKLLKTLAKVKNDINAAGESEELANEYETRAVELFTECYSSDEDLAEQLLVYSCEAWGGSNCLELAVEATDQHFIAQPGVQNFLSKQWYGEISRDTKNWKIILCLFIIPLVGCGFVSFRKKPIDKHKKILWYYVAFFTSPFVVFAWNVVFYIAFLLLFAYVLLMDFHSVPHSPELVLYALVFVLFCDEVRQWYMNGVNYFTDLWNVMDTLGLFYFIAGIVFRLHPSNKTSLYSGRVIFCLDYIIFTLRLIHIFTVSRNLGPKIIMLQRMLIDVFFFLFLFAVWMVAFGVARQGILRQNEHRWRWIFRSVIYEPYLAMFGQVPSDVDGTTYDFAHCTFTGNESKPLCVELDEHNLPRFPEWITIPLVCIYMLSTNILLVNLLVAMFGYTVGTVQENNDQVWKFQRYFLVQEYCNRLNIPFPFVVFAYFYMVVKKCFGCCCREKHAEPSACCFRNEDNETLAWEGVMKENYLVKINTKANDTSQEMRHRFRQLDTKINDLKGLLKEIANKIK
assay comment: In Vitro Canine TRPM8 Functional Assay (Ca2+ fluorescence, icilin activation)
Type: cell-based
run conditions: compound at 0.2 μM; canine TRPM8, icilin activation; read-out: % Inh @ 0.2
readout: inhibition at 0.2 µM
Put your answer as a value accompanied by its unit after it.

INSERT INTO assay_data (compound, result) VALUES
  ('CC(=O)c1c(N(Cc2ccc(F)cc2)S(=O)(=O)c2ccc(Br)cc2)sc2ccccc12 [Compound 730]', '100%'),
  ('Cc1c(N(Cc2cccc(OC(F)(F)F)c2)S(=O)(=O)C2CC2)sc2ccccc12 [Compound 770]', '95%'),
  ('CCS(=O)(=O)N(Cc1ccc(F)c(C(F)(F)F)c1)c1sc2ccccc2c1-c1ccsc1 [Compound 202]', '32%'),
  ('Cc1c(N(CCCC(F)(F)F)S(=O)(=O)c2ccc3[nH]c(=O)oc3c2)sc2ccccc12 [Compound 384]', '96%'),
  ('CCCCN(c1sc2ccccc2c1Br)S(=O)(=O)c1ccc(N(C)C)cc1 [Compound 560]', '104%'),
  ('Cc1c(N(Cc2ccc(F)c(C(F)(F)F)c2)S(=O)(=O)c2ccc(C(=O)NS(C)(=O)=O)cc2)sc2ccccc12 [Compound 623]', '101%');

Consider now this further compound.
Query: // returns reported inhibition at 0.2 µM for input Cc1c(N(Cc2ccc(F)c(C(F)(F)F)c2)S(=O)(=O)CCCC(=O)O)sc2ccccc12 [Compound 765]
Response: 101%
